- PROCEDURE_TEXT: non-covalent RecA intein splicing inhibitors, dose response, biochemical, cell-free, fluorescence, secondary screen (AID 449750)
Calls of active or inactive are those of the source. No rule for the calls is given here.
The reply should be one of these categories: True for active, False for inactive

>>> class_assignment("Cc1ccc(NC2=C(Cl)C(=O)OC2OC(=O)c2ccco2)cc1C (centres undefined)")
"False"
>>> class_assignment("O=C(CCl)N1N=C(c2ccco2)CC1c1ccco1 (centres undefined)")
"True"
>>> class_assignment("O=C(CSc1nnc(-c2ccccc2Cl)o1)Oc1ccc(Br)cc1")
"False"
>>> class_assignment("O=C(Nc1cccc(OC(=O)c2ccco2)c1)c1ccco1")
"False"
>>> class_assignment("CC(C)(C)c1[nH]nc2c1C(c1ccco1)C(C#N)=C(N)O2 (centres undefined)")
"True"

Incoming: Can you look up the reported call for COc1ccc(Cc2nccc3cc(OC)c(OC)cc23)cc1OC for me?
Outgoing: False

Incoming: Test call, this compound: CCO/C=C1/C(=O)N(Cc2ccccc2)C(=O)c2ccccc21
Outgoing: False

Incoming: Please let me know the test result on file for O=S(=O)(c1ccc(Cl)cc1)c1snnc1-c1ccccc1 .
Outgoing: False

Incoming: What did this assay record as the result for Nn1cnnc1N/N=C/c1ccc(Cl)c([N+](=O)[O-])c1 ?
Outgoing: False

Incoming: Any idea what this test logged for CCN(CC)CCOc1ccc(/C(=C(/Cl)c2ccccc2)c2ccccc2)cc1 ?
Outgoing: True

Incoming: Hey, what did the test say about O=C(CCl)Nc1c(C(=O)Nc2ccc3c(c2)OCCO3)oc2ccccc12 ?
Outgoing: True

----------
- PROCEDURE_TEXT: non-covalent RecA intein splicing inhibitors, dose response, biochemical, cell-free, fluorescence, secondary screen (AID 449750)
Calls of active or inactive are those of the source. How the calls were made is not given here.
// one of 1 (yes) = active, 0 (no) = inactive, no free text

See these solved cases before continuing.
>>> class_assignment("CC1=C(C)/C(=N/OC(=O)c2cccc([N+](=O)[O-])c2)C=CC1=O")
"0 (no)"
>>> class_assignment("Nc1nc(CCl)nc(Nc2ccc3ccccc3c2)n1")
"1 (yes)"
>>> class_assignment("N#C/C(=C/c1ccc2c(c1)OCO2)C(=O)Nc1ccc(O)cc1")
"0 (no)"
>>> class_assignment("COc1ccccc1NC(=O)CSc1nc2c(sc3ccccc32)c(=O)n1CCN(C)C")
"0 (no)"
>>> class_assignment("O=C1C(Cl)=C(NCc2cccnc2)C(=O)c2ccccc21")
"1 (yes)"

Incoming: What call does the record list for COc1ccc(CC(=O)O/N=C(\N)Cc2cccc3ccccc23)cc1OC ?
Outgoing: 0 (no)

Incoming: Outcome? CN1CCN(C2=C(Cl)C(=O)N(c3ccc(Cl)cc3)C2=O)CC1
Outgoing: 1 (yes)

----------
- PROCEDURE_TEXT: non-covalent RecA intein splicing inhibitors, dose response, biochemical, cell-free, fluorescence, secondary screen (AID 449750)
Active and inactive are the calls of the source. No rule for the calls is given here.
Field 'call' accepts active, inactive

Answered examples (4):
>>> class_assignment("Cc1ccc(N(NC(=O)C(O)(c2ccccc2)c2ccccc2)C(=O)CCl)cc1")
"active"
>>> class_assignment("NC1=NN(c2cccc(C(=O)O)c2)C(=O)C1")
"active"
>>> class_assignment("O=C(c1c[nH]c(C(=O)C(Cl)(Cl)Cl)c1)c1ccccc1Cl")
"active"
>>> class_assignment("COc1ccc(-c2cc(=O)n(-c3ccc([N+](=O)[O-])cc3)[nH]2)cc1")
"active"

Incoming: # outcome recorded in this test, key = COC(=O)CN1C(c2ccc(Cl)cc2)=Nc2ccc(Cl)cc2C1c1ccccc1 (stereo not given)
Outgoing: active

Incoming: Can you look up the reported call for COc1nc(N/N=C/c2ccc(-c3ccccc3[N+](=O)[O-])o2)nc(N2CCOCC2)n1 for me?
Outgoing: active

Incoming: // param item: Cc1ccc(S(=O)(=O)NC(=O)Nc2ccc(N(C)C)cc2)cc1 ; yields the recorded call
Outgoing: active

Incoming: Outcome? COc1cccc(N(C(=O)CCl)C(C(=O)NCCc2ccccc2)c2cccs2)c1 (stereo not given)
Outgoing: active

Incoming: Outcome logged for O=C(CCl)Nc1ccc(-c2ccccc2)cc1 in this assay:
Outgoing: active

Incoming: // outcome(item) with item = O=C(CS(=O)c1ccc(C(F)(F)F)cc1[N+](=O)[O-])Oc1ccccc1 (stereo not given)
Outgoing: inactive

----------
- PROCEDURE_TEXT: non-covalent RecA intein splicing inhibitors, dose response, biochemical, cell-free, fluorescence, secondary screen (AID 449750)
Activity calls are given as the source filed them. The rule behind the calls is not given here.
Give your call using only these classes: 1 (yes) (active), 0 (no) (inactive)

>>> class_assignment("COc1cc(/C=C(\\C#N)C(=O)c2c[nH]c3ccccc23)cc(OC)c1O")
"0 (no)"

Incoming: Query: recorded result category for O=C(COC(=O)C1CC(=O)N(Cc2ccco2)C1)c1ccc(OC(=O)c2ccco2)cc1 (stereo not drawn) in this test
Outgoing: 0 (no)

Incoming: Test call for this compound, please: Cc1ccc2c(c1)c1nnc(SCC(=O)Nc3ccc(N(C)C)cc3)nc1n2CC(=O)O
Outgoing: 0 (no)

Incoming: Can you look up the reported call for Cc1ccc(NC2=CC(=O)C(=O)c3ccccc32)cc1 for me?
Outgoing: 1 (yes)

Incoming: Per the records of this test, what outcome belongs to CC(C)(C)c1[nH]nc2c1C(c1ccoc1)C(C#N)=C(N)O2 (stereo not drawn) ?
Outgoing: 0 (no)

----------
- PROCEDURE_TEXT: non-covalent RecA intein splicing inhibitors, dose response, biochemical, cell-free, fluorescence, secondary screen (AID 449750)
The source made the active and inactive calls. No rule for the calls is given here.
Respond using exactly one of the listed classes: active, inactive

Answered examples (6):
>>> class_assignment("Clc1ccc2nnnc(-c3ccccc3)c2c1")
"active"
>>> class_assignment("O=C(Cc1cc(=O)[nH][nH]1)N/N=C/c1cccc2ccccc12")
"active"
>>> class_assignment("CCOC(=O)C(Nc1ccc2ccccc2c1)C(=O)OCC")
"active"
>>> class_assignment("COc1cc(NCCCC(C)N)c2ncccc2c1 (centres undefined)")
"active"
>>> class_assignment("Nc1ccc2ncccc2c1")
"active"
>>> class_assignment("CCOC(=O)c1cnc(-n2[nH]c(C)c(Cc3ccccc3)c2=O)[nH]c1=O")
"inactive"

Query molecule follows.
Incoming: Which outcome was assigned to O=C(NC1CCCC1)C(c1ccc(F)cc1)N(Cc1ccc(Cl)cc1)C(=O)CCl (centres undefined) in this test?
Outgoing: active

----------
- PROCEDURE_TEXT: non-covalent RecA intein splicing inhibitors, dose response, biochemical, cell-free, fluorescence, secondary screen (AID 449750)
The source made the active and inactive calls. The rule behind the calls is not given here.
Choose one outcome from this list and give only that: 1.0 (active), 0.0 (inactive)

These recorded examples may help you get a feel for the data.
>>> class_assignment("CC(=O)c1cccc(-c2ccc3c(=O)[nH]c(Nc4ccccc4)cc3c2)c1")
1.0
>>> class_assignment("c1cncc(CNc2ncnc3sc4c(c23)CCCC4)c1")
0.0
>>> class_assignment("Cn1cnc([N+](=O)[O-])c1Oc1cccc2ccccc12")
0.0
>>> class_assignment("CCOc1ccccc1Nc1nnc(Cc2ccccc2Cl)c(=O)[nH]1")
0.0

Incoming: Hi, sorry to bother you, what did the test record for N=C1/C(=C\c2ccc(OC(=O)c3ccc(F)cc3)cc2)C(=O)N=C2SC(N3CCOCC3)=NN12 ?
Outgoing: 0.0

Incoming: Any idea what this test logged for Nc1scc2c(C(=O)N/N=C/c3ccc(Cl)cc3)nn(-c3ccccc3)c(=O)c12 ?
Outgoing: 1.0

Incoming: How did this test come out for O=C1/C(=N\S(=O)(=O)c2cccs2)C([n+]2ccccc2)=C([O-])c2ccccc21 ?
Outgoing: 1.0

Incoming: Test call, this compound: O=[N+]([O-])c1cccc2c([As](=O)(O)O)cccc12
Outgoing: 0.0

Incoming: Give the logged outcome of this assay for the following compound: CCCCCCCCOC(=O)c1c(CSC(=N)N)n(C)c2cc(Br)c(OC(C)=O)cc12
Outgoing: 1.0

----------
- PROCEDURE_TEXT: non-covalent RecA intein splicing inhibitors, dose response, biochemical, cell-free, fluorescence, secondary screen (AID 449750)
Active and inactive are the calls of the source. The rule behind the calls is not given here.
Respond using exactly one of the listed classes: true (1) = active, false (0) = inactive

>>> class_assignment("Cc1[nH]n(-c2ccccc2)c(=O)c1/C=C1/C=c2ccccc2=N1")
"false (0)"
>>> class_assignment("COc1ccc(C=C(c2nc3ccccc3s2)c2nc3ccccc3s2)cc1O")
"true (1)"

Incoming: Query: recorded result category for COc1ccc(-c2cc(C#N)nc(Cl)n2)cc1 in this test
Outgoing: false (0)

Incoming: What was the test verdict on Nc1c(-c2ccccc2)c(CSc2nc3ccccc3[nH]2)nn1-c1cccc(Cl)c1 ?
Outgoing: false (0)

Incoming: How was Cn1ccnc1Sc1cc(NCCCO)c([N+](=O)[O-])c2nonc12 classified in this test?
Outgoing: false (0)

Incoming: Call for entry COC(=O)CC1=NN(c2nc(C)cc(C)n2)C(=O)C1 :
Outgoing: false (0)

Reference for the values: PubChem BioAssay AID449750
